- ASSAY METHOD TEXT: NCI Yeast Anticancer Drug Screen. Data for the bub3 strain (AID 167)
- RECORDED CONDITIONS: S. cerevisiae bub3 mutant strain, at 50.0 µM, hits give high values
- Description: Growth inhibition of yeast strains with defined genetic alterations is measured as a screen for potential anti-cancer activity. Selected strains with alterations in DNA damage repair or cell cycle control were exposed to compounds and growth inhibition was measured relative to vehicle treated controls. The strain used in this assay is bub3
The panel holds about 79,000 compounds, 15% with a hit somewhere; the sample as a whole holds those more often.
PARAMETER MEASURED: growth inhibition (%)
The figure you give is taken to be in %; do not add the unit.

Please review the following examples before continuing.
{"columns": ["MOLECULE", "PARAMETER MEASURED", "UNIT ANNOTATION", "TEST RESULT"],
 "data": [
  ["CC(C)=CC(=O)OC(=O)C=C(C)C", "growth inhibition", "%", -36.6],
  ["COC1=CC(=O)c2nc(Cl)ccc2C1=O", "growth inhibition", "%", 11.8],
  ["OCCN(CCO)C(=S)S", "growth inhibition", "%", 4.95],
  ["O=c1[nH][nH]c(=O)c2cc([N+](=O)[O-])ccc12", "growth inhibition", "%", -15],
  ["Cc1ccc(/C(C#N)=C/c2ccc3c(c2)OCO3)cc1", "growth inhibition", "%", 47.8]
]}

According to the records, this molecule O=S(=O)(O)CC(O)CN1CCN(CCO)CC1 (stereo unspecified) displays growth inhibition of -23.9

// sample CC1=CC(C)(C)NC(=S)N1c1ccc(S(=O)(=O)O)c2cccc(S(=O)(=O)O)c12 , its growth inhibition was 4.3

Entry O=[N+]([O-])c1cccc(C(F)(F)F)c1 , growth inhibition reported as 34.3

The reported growth inhibition of the molecule S=C(Nc1ccccc1)N1CCCCC1 was 2.4

What the record says about Brc1cnc2ccccc2c1 : growth inhibition is -2.55

Short answer for O=C(O)CCC(NC(=O)OCc1ccccc1)C(=O)O (stereo unspecified) : growth inhibition was -21.2

Summary for this molecule, COc1ccc(C(C)C=O)cc1 (stereo unspecified) : growth inhibition is -27.9

Per the record, C=CCCCCCCCCCOC(C)=O has growth inhibition of -2.8

For O=C(CS)Nc1ccc2ccccc2c1 the molecule record lists growth inhibition as -7.85

Reported growth inhibition of CC(=O)OCC1OC(OC2=C(CC=C(C)C)C(=O)c3ccccc3C2=O)C(OC(C)=O)C(OC(C)=O)C1OC(C)=O (stereo unspecified) : -12.7

Looking up O=C1N(C[P+](c2ccccc2)(c2ccccc2)c2ccccc2)CCCN1C[P+](c1ccccc1)(c1ccccc1)c1ccccc1 , I see its growth inhibition listed as 15.1

// recorded growth inhibition for CCOC(=O)c1ccc(NC(=S)P(=O)(c2ccccc2)c2ccccc2)cc1 : 14.9

Per the records, this molecule ( C=CC[N+](C)(C)C ) has growth inhibition equal to 14.2

The molecule CCS(=O)(=O)CCCl showed growth inhibition equal to 0.95

Consider O=C1Cc2cc(O)ccc2O1 . Its measured growth inhibition is -32

Briefly, growth inhibition measured for COc1ccc(C)cc1OC : -8.2

In plain terms, Oc1ccc(Cc2ccccc2)c2cccnc12 has a documented growth inhibition of -17.1

Form field growth inhibition, entry CC(=O)Cc1ccc(-c2ccccc2)cc1 : 10.3
